- experimental-system: delF508-CFTR (Homo sapiens, UniProt P13569, DEL508-508)
- Construct: functional activity of the CFTR channel (Chloride ion transport) in patient derived primary human bronchial epithelial cells; host or cells: patient-derived primary human bronchial epithelial cells (delF508-CFTR)
- Sequence (P13569 with tags, fused parts or gaps DEL508-508): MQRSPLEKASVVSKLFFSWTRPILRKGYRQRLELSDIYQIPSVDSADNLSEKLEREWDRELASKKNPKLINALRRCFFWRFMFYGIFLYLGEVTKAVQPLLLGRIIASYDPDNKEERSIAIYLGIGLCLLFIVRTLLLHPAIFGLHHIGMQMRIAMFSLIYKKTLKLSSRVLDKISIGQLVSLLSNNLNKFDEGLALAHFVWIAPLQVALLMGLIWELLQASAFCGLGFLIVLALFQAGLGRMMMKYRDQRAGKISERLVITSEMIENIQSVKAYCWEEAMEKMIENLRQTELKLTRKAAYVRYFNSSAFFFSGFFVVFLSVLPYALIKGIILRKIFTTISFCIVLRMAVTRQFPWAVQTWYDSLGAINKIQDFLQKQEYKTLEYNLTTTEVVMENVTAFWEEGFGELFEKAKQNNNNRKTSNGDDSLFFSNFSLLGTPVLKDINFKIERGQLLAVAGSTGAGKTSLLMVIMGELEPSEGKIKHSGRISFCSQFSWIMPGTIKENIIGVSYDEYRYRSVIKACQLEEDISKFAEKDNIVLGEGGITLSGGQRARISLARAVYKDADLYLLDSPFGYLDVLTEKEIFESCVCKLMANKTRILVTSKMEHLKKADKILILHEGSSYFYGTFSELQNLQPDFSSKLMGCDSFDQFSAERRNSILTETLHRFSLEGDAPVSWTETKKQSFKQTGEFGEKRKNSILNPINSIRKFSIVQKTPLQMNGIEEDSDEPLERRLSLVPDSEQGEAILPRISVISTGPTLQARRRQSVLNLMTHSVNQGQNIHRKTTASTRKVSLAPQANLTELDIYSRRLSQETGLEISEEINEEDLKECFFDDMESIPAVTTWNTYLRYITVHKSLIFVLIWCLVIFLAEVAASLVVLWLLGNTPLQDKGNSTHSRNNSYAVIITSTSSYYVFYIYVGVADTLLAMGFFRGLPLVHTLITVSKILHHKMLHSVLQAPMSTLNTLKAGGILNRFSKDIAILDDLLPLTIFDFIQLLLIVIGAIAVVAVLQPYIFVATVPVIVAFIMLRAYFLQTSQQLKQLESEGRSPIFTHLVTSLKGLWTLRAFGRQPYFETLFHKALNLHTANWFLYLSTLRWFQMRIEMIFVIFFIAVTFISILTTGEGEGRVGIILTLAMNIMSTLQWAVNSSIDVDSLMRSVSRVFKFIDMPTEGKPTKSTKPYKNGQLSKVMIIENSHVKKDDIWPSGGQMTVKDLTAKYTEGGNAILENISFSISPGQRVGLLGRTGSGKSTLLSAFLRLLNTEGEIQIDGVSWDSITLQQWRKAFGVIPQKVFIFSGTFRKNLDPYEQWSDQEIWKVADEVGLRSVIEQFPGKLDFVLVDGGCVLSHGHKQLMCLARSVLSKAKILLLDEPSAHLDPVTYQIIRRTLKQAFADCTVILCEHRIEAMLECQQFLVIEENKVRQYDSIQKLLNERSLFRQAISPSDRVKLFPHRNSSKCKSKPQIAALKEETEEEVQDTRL
- assay-remarks: Measurement of delF508-CFTR functional activity in primary human bronchial epithelial cells (HBECs) using Multi-Transepithelial Clamp Circuit (MTECC-24) assay
- Assay type: cell-based
- setup-conditions: primary CF HBECs; test compound added 24h before assay plus potentiator; relative to reference combination (2 μM corrector + 0.5 μM potentiator)
endpoint-label: MTECC24 CFHBEC- Amax % (%)

Nc1cc(S(=O)(=O)Nc2ccc(Cl)c(-c3ccccc3C(F)(F)F)n2)ccn1 | 74.0
Cc1cccc(C)c1-c1nc(NS(=O)(=O)c2ccnc(N)c2)ccc1C(F)(F)F | 94.2
Cc1ccccc1-c1nc(NS(=O)(=O)c2cccc(N[C@H]3C[C@@](C)(C(=O)O)C3)n2)ccc1C(F)(F)F | 70.1
Cc1ccccc1-c1nc(NS(=O)(=O)c2cccc(N[C@H]3CCOC[C@H]3O)n2)ccc1C(F)(F)F (single isomer, unassigned) | 85.1

* * *

- experimental-system: horseradish peroxidase (HRP) tagged delF508-CFTR (Homo sapiens, UniProt P13569, DEL508-508)
- Construct: expressed in transfected cells
- Sequence (P13569 with tags, fused parts or gaps DEL508-508): as above
- assay-remarks: Measurement of delF508-CFTR-HRP surface expression in CFBE41o- cells
- Assay type: cell-based
- setup-conditions: delF508-CFTR-HRP surface expression, CFBE41o- cells; read-out: DelF508-CFTR-HRP EC50
pEC50: −log10 of the molar value. Counter-ions that a name gives are not always drawn.
endpoint-label: pEC50

These solved cases illustrate the format of a correct answer.
Cc1c(F)cccc1-c1nc(NS(=O)(=O)c2ccnc(N3CC(O)C3)c2)ccc1Cl [Example 323] | 5.56
Cc1ccccc1-c1nc(NS(=O)(=O)c2cccc(N3CCC[C@@H](C(=O)O)C3)n2)ccc1C(F)(F)F [Example 332] | 5.96
Cc1c(F)cccc1-c1nc(NS(=O)(=O)c2cccc(N3CCn4cnnc4C3)n2)ccc1Cl [Example 146] | 5.37
Cc1ccccc1-c1nc(NS(=O)(=O)c2cccc(N3CCC4(CCC(CO)[C@H]4N)CC3)n2)ccc1C(F)(F)F (stereo partly shown) [Example 307] | 5.42
Cc1ccccc1-c1nc(NS(=O)(=O)c2cccc(N[C@@H]3CCNC[C@@H]3F)n2)ccc1C(F)(F)F (relative stereo) [Example 117, Hydrochloride] | 5.56

[A] Cc1ccc(F)cc1-c1nc(NS(=O)(=O)c2cccc(N3CCN(C(C)(C)C)CC3)n2)ccc1C(F)(F)F [Example 143]
[B] Cc1ccccc1-c1nc(NS(=O)(=O)c2cccc(N3CCN4CC(F)(F)C[C@H]4C3)n2)ccc1C(F)(F)F [Example 136]
[ask] Record comparison, field pEC50: mark the lower of A and B . Respond with the label that goes with your answer.
[reply] A

* * *

- experimental-system: horseradish peroxidase (HRP) tagged delF508-CFTR (Homo sapiens, UniProt P13569, DEL508-508)
- Construct: expressed in transfected cells
- assay-remarks: Measurement of delF508-CFTR-HRP surface expression in CFBE41o- cells;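 for DelF508-CFTR-HRP Amax %: percent efficacy relative to reference corrector lumacaftor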
- Type: cell-based
- setup-conditions: CFBE41o- cells; surface expression Amax; read-out: DelF508-CFTR-HRP Amax %
endpoint-label: Emax (%)

COc1ccc(Cl)c(-c2nc(NS(=O)(=O)c3cccc(N4CCCC(C)(C(=O)O)C4)n3)ccc2C(F)(F)F)c1 (stereo not shown) | 684

[A] Cc1ccc(NS(=O)(=O)c2cccc(N3CCC[C@@](C)(C(=O)O)C3)n2)nc1-c1ccccc1C1CC1
[B] CCc1ccccc1-c1nc(NS(=O)(=O)c2cccc(N3CCCC(C)(C(=O)O)C3)n2)ccc1Cl (stereo not shown)
[ask] Problem: Given the entries A and B , determine which has the lower reported Emax. Your choice should be expressed through its label.
[reply] A
(A: 334%, B: 588%)

[P] CC1(C(=O)O)CCN(c2cccc(S(=O)(=O)Nc3ccc(Cl)c(-c4ccccc4C4CC4)n3)n2)CC1
[Q] Cc1ccc(F)cc1-c1nc(NS(=O)(=O)c2cccc(N3CCC[C@](C)(C(=O)O)C3)n2)ccc1C(F)(F)F
[ask] # return whichever of P and Q has the smaller Emax Mark your selection by writing its label.
[reply] P
(P: 370%, Q: 714%)

[A] CCc1ccccc1-c1nc(NS(=O)(=O)c2cccc(N3CCC[C@@](C)(C(=O)O)C3)n2)ccc1Cl
[B] Cc1ccccc1-c1nc(NS(=O)(=O)c2cccc(N3CCC[C@@](C)(C(=O)O)C3)n2)ccc1C
[ask] Would you let me know which has the greater Emax value, A or B ? Please indicate the selected item by its label.
[reply] A

* * *

- experimental-system: horseradish peroxidase (HRP) tagged delF508-CFTR (Homo sapiens, UniProt P13569, DEL508-508)
- Construct: expressed in transfected cells
- assay-remarks: Measurement of delF508-CFTR-HRP surface expression in CFBE41o- cells;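 for DelF508-CFTR-HRP Amax %: percent efficacy relative to reference corrector lumacaftor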
- Type: cell-based
- setup-conditions: delF508-CFTR-HRP surface expression, CFBE41o- cells; read-out: DelF508-CFTR-HRP Amax %
endpoint-label: Emax (%)

Consider the following illustrative entries.
Cc1ccc(F)cc1-c1nc(NS(=O)(=O)c2cccc(N)n2)ccc1C(F)(F)F [Example 1] | 867
CCc1ccccc1-c1nc(NS(=O)(=O)c2cccc(N3CCC[C@H](C(=O)O)C3)n2)ccc1C(F)(F)F [Example 370] | 601
Cc1cc(C#N)ccc1-c1nc(NS(=O)(=O)c2ccnc(N)c2)ccc1Cl [Example 92] | 23.9
Cc1ccccc1-c1nc(NS(=O)(=O)c2cccc(OC3CCC(C(=O)O)CC3)n2)ccc1C(F)(F)F (stereo not shown) [Example 342] | 266

[1] Cc1cccc(C)c1-c1nc(NS(=O)(=O)c2cccc(N3CCC(C)(C(=O)O)CC3)n2)ccc1Cl [Example 250]
[2] COC(=O)C1(O)CCN(c2cccc(S(=O)(=O)Nc3ccc(Cl)c(-c4c(C)cccc4C)n3)n2)CC1 [Example 260]
[ask] I need your help: which of the pair 1 , 2 has higher Emax? Give the chosen item's label as your response.
[reply] 1
(1: 744%, 2: 59.8%)

* * *

- experimental-system: horseradish peroxidase (HRP) tagged delF508-CFTR (Homo sapiens, UniProt P13569, DEL508-508)
- Construct: expressed in transfected cells
- assay-remarks: Measurement of delF508-CFTR-HRP surface expression in CFBE41o- cells
- Format: cell-based
- setup-conditions: delF508-CFTR-HRP surface expression, CFBE41o- cells; read-out: DelF508-CFTR-HRP EC50
pEC50: −log10 of the molar value.
endpoint-label: pEC50

Please review the following examples before continuing.
CCCOc1ccccc1-c1nc(NS(=O)(=O)c2cccc(N3CCC[C@@](C)(C(=O)O)C3)n2)ccc1C(F)(F)F | 6.03
Cc1ccccc1-c1nc(NS(=O)(=O)c2cccc(N[C@@H]3CCOC[C@@H]3O)n2)ccc1C(F)(F)F (racemic) [Example 275] | 5.97

[a] Cc1cccc(C)c1-c1nc(NS(=O)(=O)c2cccc(N)n2)ccc1C(F)(F)F
[b] Cc1cccc(C)c1-c1nc(NS(=O)(=O)c2cccc(N3CCC(C(=O)O)CC3)n2)ccc1Cl
[ask] // returns a or b , whichever has the lower pEC50 Answer = label.
[reply] b
(b: 5.51, a: 6.01)

* * *

- experimental-system: horseradish peroxidase (HRP) tagged delF508-CFTR (Homo sapiens, UniProt P13569, DEL508-508)
- Construct: expressed in transfected cells
- assay-remarks: Measurement of delF508-CFTR-HRP surface expression in CFBE41o- cells
- Assay type: cell-based
- setup-conditions: CFBE41o- cells; mean of at least two replicates; read-out: DelF508-CFTR-HRP EC50
pEC50: −log10 of the molar value.
endpoint-label: pEC50

Worked cases, pEC50 given:
C[C@@]1(C(=O)O)CCCN(c2cccc(S(=O)(=O)Nc3ccc(C(F)(F)F)c(-c4ccccc4Cl)n3)n2)C1 [Example 421] | 5.69
CC(C)c1ccccc1-c1nc(NS(=O)(=O)c2cccc(N[C@H]3CCC[C@H](C(=O)O)C3)n2)ccc1C(F)(F)F [Example 418] | 5.91
C[C@]1(C(=O)O)CCCN(c2cccc(S(=O)(=O)Nc3ccc(C(F)(F)F)c(-c4ccccc4C4CC4)n3)n2)C1 [Example 429] | 6.08
CC1(C(=O)O)CCN(c2cccc(S(=O)(=O)Nc3ccc(Cl)c(-c4ccccc4C4CC4)n3)n2)CC1 [Example 430] | 5.77

[A] Cc1ccccc1-c1nc(NS(=O)(=O)c2cccc(N[C@@H]3CCC[C@H](C(=O)O)C3)n2)ccc1C(F)(F)F (relative stereo) [Example 461]
[B] Cc1ccc(Cl)cc1-c1nc(NS(=O)(=O)c2cccc(N3CCC[C@@](C)(C(=O)O)C3)n2)ccc1C(F)(F)F [Example 450]
[C] CC(C)COc1ccccc1-c1nc(NS(=O)(=O)c2cccc(N3CCCC(C)(C(=O)O)C3)n2)ccc1C(F)(F)F (stereo not shown) [Example 386]
[ask] Hey, can you sort those compounds up there by pEC50, smallest first? Your task in answering is to list the labels in the requested order.
[reply] A, B, C
